- studySystem: JNK3 (Homo sapiens, UniProt P53779)
- Sequence (P53779 whole entry): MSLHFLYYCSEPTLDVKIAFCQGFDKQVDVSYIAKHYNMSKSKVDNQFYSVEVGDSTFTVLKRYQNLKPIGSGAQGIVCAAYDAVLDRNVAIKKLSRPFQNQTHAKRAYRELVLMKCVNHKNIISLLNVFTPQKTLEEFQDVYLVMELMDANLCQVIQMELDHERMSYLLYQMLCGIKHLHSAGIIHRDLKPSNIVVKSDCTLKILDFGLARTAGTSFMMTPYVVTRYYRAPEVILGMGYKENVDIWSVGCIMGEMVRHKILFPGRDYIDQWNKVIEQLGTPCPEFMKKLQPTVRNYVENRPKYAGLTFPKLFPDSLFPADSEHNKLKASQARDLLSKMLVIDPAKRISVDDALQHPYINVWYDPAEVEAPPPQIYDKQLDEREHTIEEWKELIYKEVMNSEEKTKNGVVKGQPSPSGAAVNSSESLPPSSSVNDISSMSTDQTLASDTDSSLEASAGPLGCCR
- assayInfo: JNK3 kinase (intrinsic ATPase, Kinase-Glo) assay
- Assay type: biochemical
- reportedConditions: Table 3a; read-out: Kd JNK3
Recorded measurements of pKd, one per entry
By convention, pKd is the negative base-10 log of a molar concentration.

>  <querySmiles>
O=C(Nc1ccc2c(c1)C(=O)NC2)c1cc2c(-c3cnc4[nH]ccc4c3)cccc2s1

>  <pKd>
8.34

$$$$
>  <querySmiles>
O=C(Nc1ccc(O)c(C(=O)N2CCCCC2)c1)c1cc2c(-c3cnc4[nH]ccc4c3)cccc2s1

>  <pKd>
8.58

$$$$
>  <querySmiles>
Cc1ccc(NC(=O)c2ccn3ncc(-c4cncc5ccccc45)c3c2)cc1

>  <pKd>
8.93

$$$$

Could you now consider this next compound?
Reported pKd, compound CNC(=O)c1cc(NC(=O)c2cc3c(-c4cnc5[nH]ccc5c4)cccc3s2)ccc1O : ____
8.34

* * *

- assayInfo: Solubility
measuredMetric: log10(solubility) (log10 of the value in µM)
The base-10 logarithm of solubility, taken with solubility in µM, is what appears here.

Reported log10(solubility), compound CN(C)CCNC(=O)c1cc2c(-c3cnc4[nH]ccc4c3)cccc2s1 : ____
2.23

Reported log10(solubility), compound CN(C)CCNC(=O)c1cc(NC(=O)c2cc3c(-c4cnc5[nH]ccc5c4)cccc3s2)ccc1O : ____
0.30

Reported log10(solubility), compound COc1ccc(NC(=O)c2cc3c(-c4cnc5[nH]ccc5c4)cccc3s2)cc1C(=O)N(C)C : ____
0.87

Reported log10(solubility), compound CNC(=O)c1ccc(NC(=O)c2ccn3ncc(-c4cnc5[nH]ccc5c4)c3c2)cc1 : ____
0.26

Reported log10(solubility), compound COc1ccc(NC(=O)c2cc3c(-c4cnc5[nH]ccc5c4)cccc3s2)cc1C(=O)N1CCOCC1 : ____
0.41

* * *

- studySystem: UniProtKB P53779
- assayInfo: Promega NanoBRET intracellular target engagement (tracer K10 displacement), JNK3
pIC50: −log10 of the molar value.
Quick rule: pIC50 of at least 6 means TRUE, below that means FALSE.

Recorded results for 2 compounds are shown here.
>  <compound>
COc1ccc(NC(=O)c2cc3c(-c4cnc5[nH]ccc5c4)cccc3s2)cc1C(=O)N1CCOCC1 [CDD-2635]

>  <studySystem>
UniProtKB P53779

>  <categoryLabel>
TRUE

$$$$
>  <compound>
CNC(=O)c1cc(NC(=O)c2cc3c(-c4cnc5[nH]ccc5c4)cccc3s2)ccc1OC [CDD-2490]

>  <studySystem>
UniProtKB P53779

>  <categoryLabel>
FALSE

$$$$

Hello, I need to know if CNC(=O)c1cc2c(-c3cnc4[nH]ccc4c3)cccc2s1 [CDD-2627] has measured pIC50 not below 6. Thanks!
FALSE

Hello, I need to know if CN(C)C(=O)c1cc(NC(=O)c2cc3c(-c4cnc5[nH]ncc5c4)cccc3s2)ccc1O [CDD-3018] has measured pIC50 not below 6. Thanks!
FALSE

Hello, I need to know if COc1ccc(NC(=O)c2cc3c(-c4cnc5[nH]ccc5c4)cccc3s2)cc1C(=O)N(C)C [CDD-2628] has measured pIC50 not below 6. Thanks!
TRUE

Hello, I need to know if CN(C)C(=O)c1cc(NC(=O)c2nc3c(-c4cnc5[nH]ccc5c4)cccc3s2)ccc1O [CDD-2856] has measured pIC50 not below 6. Thanks!
FALSE

Hello, I need to know if CN(C)C(=O)c1cc(NC(=O)c2cc3c(-c4cnc5[nH]ccc5c4)cccc3s2)ccn1 [CDD-3012] has measured pIC50 not below 6. Thanks!
FALSE

Hello, I need to know if CNCc1ccc(NC(=O)c2ccc3ncc(-c4cnc5[nH]ccc5c4)n3c2)cc1 [CDD-2488] has measured pIC50 not below 6. Thanks!
FALSE

* * *

- studySystem: JNK1 (Homo sapiens)
- Sequence (P45983 whole entry): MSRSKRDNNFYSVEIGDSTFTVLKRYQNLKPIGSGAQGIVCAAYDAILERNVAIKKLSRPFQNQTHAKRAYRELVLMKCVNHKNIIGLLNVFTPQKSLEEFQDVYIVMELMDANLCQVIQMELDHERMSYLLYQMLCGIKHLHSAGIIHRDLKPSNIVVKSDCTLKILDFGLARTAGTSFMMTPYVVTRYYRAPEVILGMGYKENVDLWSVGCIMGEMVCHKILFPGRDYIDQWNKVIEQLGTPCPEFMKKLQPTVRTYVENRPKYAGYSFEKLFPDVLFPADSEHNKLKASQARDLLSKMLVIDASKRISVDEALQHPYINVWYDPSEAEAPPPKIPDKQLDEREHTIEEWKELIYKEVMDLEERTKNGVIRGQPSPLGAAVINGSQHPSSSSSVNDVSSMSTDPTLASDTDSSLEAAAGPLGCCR
- assayInfo: Promega NanoBRET intracellular target engagement (tracer K10 displacement), JNK1
measuredMetric: pIC50
By convention, pIC50 is the negative base-10 log of a molar concentration.

Worked examples follow.
>  <querySmiles>
CN(C)C(=O)c1ccc(O)c(NC(=O)c2cc3c(-c4cnc5[nH]ccc5c4)cccc3s2)c1

>  <studySystem>
JNK1 (Homo sapiens)

>  <measuredMetric>
pIC50

>  <quantitativeResult>
4.94

$$$$
>  <querySmiles>
CN(C)C(=O)c1cc(NC(=O)c2nc3c(-c4cnc5[nH]ccc5c4)cccc3s2)ccc1O

>  <studySystem>
JNK1 (Homo sapiens)

>  <measuredMetric>
pIC50

>  <quantitativeResult>
6.00

$$$$
>  <querySmiles>
CN(C)C(=O)c1cc(NC(=O)c2cc3c(-c4cnc5[nH]ccc5c4)cccc3s2)ccn1

>  <studySystem>
JNK1 (Homo sapiens)

>  <measuredMetric>
pIC50

>  <quantitativeResult>
5.42

$$$$
>  <querySmiles>
COc1ccc(NC(=O)c2cc3c(-c4cnc5[nH]ccc5c4)cccc3s2)cc1C(=O)N(C)C

>  <studySystem>
JNK1 (Homo sapiens)

>  <measuredMetric>
pIC50

>  <quantitativeResult>
6.30

$$$$
>  <querySmiles>
CNC(=O)c1ccc(NC(=O)c2ccn3ncc(-c4cnc5[nH]ccc5c4)c3c2)cc1

>  <studySystem>
JNK1 (Homo sapiens)

>  <measuredMetric>
pIC50

>  <quantitativeResult>
4.31

$$$$

Reported pIC50, compound Cc1ccc(NC(=O)c2ccn3ncc(-c4cnc5[nH]ccc5c4)c3c2)cc1 : ____
6.08

Reported pIC50, compound CNC(=O)c1ccn2ncc(-c3cnc4[nH]ccc4c3)c2c1 : ____
5.14

Reported pIC50, compound O=C(Nc1ccc(O)c(C(=O)N2CCC2)c1)c1cc2c(-c3cnc4[nH]ccc4c3)cccc2s1 : ____
6.10

* * *

- assayInfo: In vitro metabolism in mouse liver microsomes
- reportedConditions: mouse, microsomes
measuredMetric: half-life (h)
Numbers only; they are read as h.

Worked examples follow.
>  <molecule>
COc1ccc(NC(=O)c2cc3c(-c4cnc5[nH]ccc5c4)cccc3s2)cc1C(=O)N(C)C [CDD-2628]

>  <half-life / h>
0.677

$$$$
>  <molecule>
CN(C)CCNC(=O)c1cc2c(-c3cnc4[nH]ccc4c3)cccc2s1 [CDD-3085]

>  <half-life / h>
1.17

$$$$

Reported half-life, molecule CNC(=O)c1ccn2ncc(-c3cnc4[nH]ccc4c3)c2c1 [CDD-2574] : ____
0.125

Reported half-life, molecule NC(=O)c1cccc(NC(=O)c2cc3c(-c4cnc5[nH]ccc5c4)cccc3s2)c1 [CDD-2936] : ____
1.15

Reported half-life, molecule O=C(Nc1ccc(O)c(C(=O)NCC2CC2)c1)c1cc2c(-c3cnc4[nH]ccc4c3)cccc2s1 [CDD-3113] : ____
3.15

Reported half-life, molecule CN(C)CCNC(=O)c1cc(NC(=O)c2cc3c(-c4cnc5[nH]ccc5c4)cccc3s2)ccc1O [CDD-3086] : ____
1.5

Reported half-life, molecule CNCc1ccc(NC(=O)c2ccc3ncc(-c4cnc5[nH]ccc5c4)n3c2)cc1 [CDD-2488] : ____
2.1

Reported half-life, molecule O=C(Nc1cccc(C(=O)N2CCCCC2)c1)c1cc2c(-c3cnc4[nH]ccc4c3)cccc2s1 [CDD-2630] : ____
0.0583

Reported half-life, molecule CNCc1ccc(NC(=O)c2ccn3ncc(-c4cnc(N)nc4)c3c2)cc1 [CDD-2387] : ____
2.01

Reported half-life, molecule CNC(=O)c1cc(NC(=O)c2cc3c(-c4cnc5[nH]ccc5c4)cccc3s2)ccc1O [CDD-3087] : ____
1.28

Reported half-life, molecule O=C(Nc1ccc(F)cc1)c1ccn2ncc(-c3cnc4[nH]ccc4c3)c2c1 [CDD-2486] : ____
0.18

Reported half-life, molecule COc1ccc(NC(=O)c2cc3c(-c4cnc5[nH]cc(C)c5c4)cccc3s2)cc1C(=O)N(C)C [CDD-2731] : ____
0.53

Reported half-life, molecule CN(C)C(=O)c1cc(NC(=O)c2ccc3ncc(-c4cnc5[nH]ccc5c4)n3c2)ccc1O [CDD-3016] : ____
5.3

* * *

Recorded measurements of log10 solubility, one per entry
- assayInfo: Solubility
The base-10 logarithm of solubility, taken with solubility in µM, is what appears here.

Worked examples follow.
>  <querySmiles>
O=C(Nc1ccc2c(c1)C(=O)NC2)c1cc2c(-c3cnc4[nH]ccc4c3)cccc2s1

>  <log10 solubility>
0.15

$$$$
>  <querySmiles>
O=C(Nc1cncnc1)c1cc2c(-c3cnc4[nH]ccc4c3)cccc2s1

>  <log10 solubility>
-0.52

$$$$
>  <querySmiles>
CNC(=O)c1cc(NC(=O)c2cc3c(-c4cnc5[nH]ccc5c4)cccc3s2)ccc1O

>  <log10 solubility>
-0.40

$$$$
>  <querySmiles>
CN(C)Cc1ccc(NC(=O)c2ccn3ncc(-c4cnc5[nH]ccc5c4)c3c2)cc1

>  <log10 solubility>
2.25

$$$$
>  <querySmiles>
Cc1ccc(NC(=O)c2ccn3ncc(-c4cncc5ccccc45)c3c2)cc1

>  <log10 solubility>
0.36

$$$$
>  <querySmiles>
COc1ccc(NC(=O)c2cc3c(-c4cnc5[nH]ccc5c4)cccc3s2)cc1C(=O)N1CCCCC1

>  <log10 solubility>
0.40

$$$$
>  <querySmiles>
CN(C)C(=O)c1cc(NC(=O)c2cc3c(-c4cnc5[nH]ccc5c4)cncc3s2)ccc1O

>  <log10 solubility>
0.58

$$$$
>  <querySmiles>
Cc1ccc(NC(=O)c2ccn3ncc(-c4cnc5[nH]ccc5c4)c3c2)cc1

>  <log10 solubility>
0.00

$$$$
>  <querySmiles>
CN(C)C(=O)c1cccc(NC(=O)c2cc3c(-c4cnc5[nH]ccc5c4)cccc3s2)c1

>  <log10 solubility>
-0.22

$$$$
>  <querySmiles>
CNC(=O)c1cc(NC(=O)c2cc3c(-c4cnc5[nH]ccc5c4)cccc3s2)ccc1OC

>  <log10 solubility>
-0.40

$$$$

Reported log10 solubility, compound CCN(CC)Cc1cc(NC(=O)c2cc3c(-c4cnc5[nH]ccc5c4)cccc3s2)ccc1O : ____
0.53

Reported log10 solubility, compound CNC(=O)c1cc2c(-c3cnc4[nH]ccc4c3)cccc2s1 : ____
1.61

Reported log10 solubility, compound CN(C)C(=O)c1cc(NC(=O)c2cc3c(-c4cnc5[nH]ncc5c4)cccc3s2)ccc1O : ____
0.18

Reported log10 solubility, compound CN(C)C(=O)c1ccc(O)c(NC(=O)c2cc3c(-c4cnc5[nH]ccc5c4)cccc3s2)c1 : ____
0.73

Reported log10 solubility, compound CN(C)C(=O)c1cc(NC(=O)c2cc3c(-c4cnc5[nH]ccc5c4)cccc3s2)ccc1F : ____
-0.52

Reported log10 solubility, compound CNCc1ccc(NC(=O)c2ccn3ncc(-c4cnc(N)nc4)c3c2)cc1 : ____
2.40

Reported log10 solubility, compound O=C(Nc1ccc(C(F)(F)F)cc1)c1ccn2ncc(-c3cnc4[nH]ccc4c3)c2c1 : ____
-0.22
